- assaySystem: P. aeruginosa lectin LecA (Pseudomonas aeruginosa, UniProt Q05097)
- testDetails: Isothermal titration calorimetry
- Type: binding
- measurementParameters: ITC, 0.1 M Tris base, pH 7.5, 25 mM CaCl2, 25 °C; average of two independent runs
Square brackets hold non-standard residues; d marks the D form. Side chains are listed from the residue outwards. Peptide text beside a SMILES is read from it. * marks the point of attachment. X1 = O=C(CCS[C@@H]1O[C@H](CO)[C@H](O)[C@H](O)[C@H]1O)*; βGal = OC[C@H]1O[C@@H](*)[C@H](O)[C@@H](O)[C@H]1O; Mpa = O=C(O)CCS
attributeMeasured: −T ΔS (kcal/mol)

compound	assaySystem	recordedValue
CC[C@H](C)[C@H](NC(=O)[C@H](CCCCN)NC(=O)[C@H](Cc1ccccc1)NC(=O)[C@H](CCCCNC(=O)[C@H](CC(C)C)NC(=O)[C@@H]1CCCN1C(=O)[C@H](CCCCN)NC(=O)CCS[C@@H]1O[C@H](CO)[C@H](O)[C@H](O)[C@H]1O)NC(=O)[C@H](CC(C)C)NC(=O)[C@@H]1CCCN1C(=O)[C@H](CCCCN)NC(=O)CCS[C@@H]1O[C@H](CO)[C@H](O)[C@H](O)[C@H]1O)C(N)=O [GalBG1] ([Mpa](βGal)KPLK([Leu-Pro-Lys-X1])FKI-NH2)	P. aeruginosa lectin LecA (Pseudomonas aeruginosa, UniProt Q05097)	0.7
O=[N+]([O-])c1ccc(O[C@@H]2O[C@H](CO)[C@H](O)[C@H](O)[C@H]2O)cc1 [NPG, p-nitrophenyl-β-galactoside]	P. aeruginosa lectin LecA (Pseudomonas aeruginosa, UniProt Q05097)	3.4
CC(C)S[C@@H]1O[C@H](CO)[C@H](O)[C@H](O)[C@H]1O [IPTG, isopropyl-β-thiogalactoside]	P. aeruginosa lectin LecA (Pseudomonas aeruginosa, UniProt Q05097)	2.8
O=C[C@H](O)[C@@H](O)[C@@H](O)[C@H](O)CO	P. aeruginosa lectin LecA (Pseudomonas aeruginosa, UniProt Q05097)	2.3

----------
- assaySystem: P. aeruginosa lectin LecA (Pseudomonas aeruginosa)
- testDetails: Isothermal titration calorimetry
- Type: binding
- measurementParameters: ITC, 0.1 M Tris base, pH 7.5, 25 mM CaCl2, 25 °C; average of two independent runs
Square brackets hold non-standard residues; d marks the D form. Side chains are listed from the residue outwards. Peptide text beside a SMILES is read from it. * marks the point of attachment. X1 = O=C(CCS[C@@H]1O[C@H](CO)[C@H](O)[C@H](O)[C@H]1O)*; βGal = OC[C@H]1O[C@@H](*)[C@H](O)[C@@H](O)[C@H]1O; Mpa = O=C(O)CCS
attributeMeasured: n′ (stoichiometry, number of occupied lectin galactose binding sites per dendrimer)

molecule	recordedValue
CC(C)S[C@@H]1O[C@H](CO)[C@H](O)[C@H](O)[C@H]1O [IPTG, isopropyl-β-thiogalactoside]	1.1
CC[C@H](C)[C@H](NC(=O)[C@H](CCCCN)NC(=O)[C@H](Cc1ccccc1)NC(=O)[C@H](CCCCNC(=O)[C@H](CC(C)C)NC(=O)[C@@H]1CCCN1C(=O)[C@H](CCCCN)NC(=O)CCS[C@@H]1O[C@H](CO)[C@H](O)[C@H](O)[C@H]1O)NC(=O)[C@H](CC(C)C)NC(=O)[C@@H]1CCCN1C(=O)[C@H](CCCCN)NC(=O)CCS[C@@H]1O[C@H](CO)[C@H](O)[C@H](O)[C@H]1O)C(N)=O [GalBG1] ([Mpa](βGal)KPLK([Leu-Pro-Lys-X1])FKI-NH2)	2.5
O=[N+]([O-])c1ccc(O[C@@H]2O[C@H](CO)[C@H](O)[C@H](O)[C@H]2O)cc1 [NPG, p-nitrophenyl-β-galactoside]	0.9
O=C[C@H](O)[C@@H](O)[C@@H](O)[C@H](O)CO [D-galactose]	1.1

----------
- assaySystem: P. aeruginosa lectin LecA (Pseudomonas aeruginosa, UniProt Q05097)
- Sequence (Q05097 1-122): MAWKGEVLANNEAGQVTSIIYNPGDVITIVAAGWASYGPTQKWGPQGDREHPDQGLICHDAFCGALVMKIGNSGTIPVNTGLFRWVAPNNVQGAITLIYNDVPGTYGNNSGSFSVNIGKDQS
- testDetails: Isothermal titration calorimetry
- Type: binding
- measurementParameters: ITC, 0.1 M Tris base, pH 7.5, 25 mM CaCl2, 25 °C; average of two independent runs
Square brackets hold non-standard residues; d marks the D form. Side chains are listed from the residue outwards. Peptide text beside a SMILES is read from it. * marks the point of attachment. X1 = O=C(CCS[C@@H]1O[C@H](CO)[C@H](O)[C@H](O)[C@H]1O)*; βGal = OC[C@H]1O[C@@H](*)[C@H](O)[C@@H](O)[C@H]1O; Mpa = O=C(O)CCS
attributeMeasured: ΔH (kcal/mol)

compound	attributeMeasured	recordedValue
CC[C@H](C)[C@H](NC(=O)[C@H](CCCCN)NC(=O)[C@H](Cc1ccccc1)NC(=O)[C@H](CCCCNC(=O)[C@H](CC(C)C)NC(=O)[C@@H]1CCCN1C(=O)[C@H](CCCCN)NC(=O)CCS[C@@H]1O[C@H](CO)[C@H](O)[C@H](O)[C@H]1O)NC(=O)[C@H](CC(C)C)NC(=O)[C@@H]1CCCN1C(=O)[C@H](CCCCN)NC(=O)CCS[C@@H]1O[C@H](CO)[C@H](O)[C@H](O)[C@H]1O)C(N)=O [GalBG1] ([Mpa](βGal)KPLK([Leu-Pro-Lys-X1])FKI-NH2)	ΔH	-8.3
O=C[C@H](O)[C@@H](O)[C@@H](O)[C@H](O)CO [D-galactose]	ΔH	-8.4
O=[N+]([O-])c1ccc(O[C@@H]2O[C@H](CO)[C@H](O)[C@H](O)[C@H]2O)cc1 [NPG, p-nitrophenyl-β-galactoside]	ΔH	-10.0
CC(C)S[C@@H]1O[C@H](CO)[C@H](O)[C@H](O)[C@H]1O [IPTG, isopropyl-β-thiogalactoside]	ΔH	-8.9
